- protocol_details: protein stability index of a GFP-peptide fusion (GPS, HEK-293T) (PSI 1-6); higher = more stable;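 also: 24-mer peptide tiles fused after GFP, lentivirally expressed, FACS-sorted into six equal bins by GFP/DsRed ratio, decoded by Illumina sequencing, PSI is the read-weighted mean bin number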
- run_parameters: treatment: MLN4924 1 uM, 8 h; c terminus: a fixed tail appended
endpoint_name: protein stability index
Please reply with the value in numeric form only.

Please review the following examples before continuing.
- residue_string: "PLGVLQAIAMYFLPPSPRFLVMKG [SLC2A12]"
  protein stability index: 2.88
- residue_string: "SAKDGGPQPPDAPQLVSSAREGSS [PLEKHN1]"
  protein stability index: 5.39

Return the recorded protein stability index value; entry: YSSNQLHHFFCDIAPVLKLASHHN [OR10K2]
2.17

Provide only the value of recorded protein stability index for VHLVIWLLLVAKMSVGHLRLLSHD [JAGN1]
3.36

Give protein stability index for QFGIKDVFDNAIRAALISRRHLQF [RHOBTB1]
2.59

Complete the entry with protein stability index for AQLELYQLQVESNSSQLLLRRHAG [SCARA5]
2.9

Identify protein stability index associated with the sequence TCTLLLLYSLAPTMGAVVLSSTLL [MFSD9]
3.17

Look up and state reported protein stability index for GTLNREDLSRLVNCLTGEGEDTRL [CIB1]
4.48

----------
- protocol_details: protein stability index of a GFP-peptide fusion (GPS, HEK-293T) (PSI 1-6); higher = more stable
- run_parameters: treatment: MLN4924 1 uM, 8 h; c terminus: a fixed tail appended
Reported values of protein stability index for individual entries
Could you keep your reply to the number by itself?

Examples with answers:
- residue_string: "KHIPYREHKSLTGTARYMSINTHL [CSNK1G3]"
  protein stability index: 2.51
- residue_string: "NENMAAKKKSVAMHTNYLSACSFT [GNB5]"
  protein stability index: 3.25

Fill in reported protein stability index for this entry: IVATLLILDICEDNVPDPKDVKER [TMEM175]
2.49

Report measured protein stability index; entry is KKALSGLSSRWKNWWIRGILTLTM [CDS1]
2.22

Please report the measured protein stability index for ERTGFSIRPVAGYLSPRDFLSGLA [TPH1]
2.36

Determine its reported protein stability index: APRVRTAFTMEQVRTLEGVFQHHQ [VENTX]
3.26

Answer with the recorded protein stability index of FSLVGKRAISTSVCVRAHESVVKS [COX4I1] only.
2.94

Give a short answer stating reported protein stability index for LDKQAKLSRAYDGTTYLPGIVGLN [USP39] .
3.1

----------
- protocol_details: protein stability index of a GFP-peptide fusion (GPS, HEK-293T) (PSI 1-6); higher = more stable
- run_parameters: treatment: MLN4924 1 uM, 8 h; c terminus: a fixed tail appended
Reported protein stability index values for a set of sequences

Example results:
- residue_string: "TQKLSKIETLRLAKNYIWALSEIL [NEUROD6]"
  endpoint_name: "protein stability index"
  measurement: 2.67
- residue_string: "GLPGPEAARSGDAAANKLFHYIPG [PLEKHN1]"
  endpoint_name: "protein stability index"
  measurement: 4.15
- residue_string: "EGVISVSEDRTVRVWLKRDSGQYW [WDFY2]"
  endpoint_name: "protein stability index"
  measurement: 2.3
- residue_string: "RFYFENLLAKNSKPIHTTILNPHV [CAMK2B]"
  endpoint_name: "protein stability index"
  measurement: 2.23

Tell me measured protein stability index for SVLMGHGVCMGLVAAACACGFTVA [OR10K2] please.
3.08

Return reported protein stability index. Input sequence: LESEGSPETLTNLRKGYLFMYNLV [HACD3]
1.97

Identify measured protein stability index corresponding to IPERLSIFCRDTQTVFQKKNLQQT [IQUB]
2.98

State, in one line, measured protein stability index of LKLYYRRLFPYSQYYRWLNYGGVI [PRIM1]
2.6

Provide measured protein stability index value, entry: VDRCGASVEAGGSVHFDGETIEGA [FEM1A]
4.92

Tell me measured protein stability index for THACREYLKNLPLLSKYCGYREDN [TPH1] please.
2.18

----------
- protocol_details: protein stability index of a GFP-peptide fusion (GPS, HEK-293T) (PSI 1-6); higher = more stable
- run_parameters: treatment: DMSO; c terminus: a fixed tail appended
Everything with protein stability index lower than 3 is criterion not met; everything else, including exactly 3, is criterion met.

The following sequences have reported results that may help.
- residue_string: "GPGSKRDAHFCAVCSDYASGYHYG [ESR2]"
  category: "criterion not met"
- residue_string: "DSSEEKHLEEPGETQNAFLNERKQ [CHGB]"
  category: "criterion met"
- residue_string: "MMTLLMKKDTLTEEETQFYISETV [STK38L]"
  category: "criterion met"
- residue_string: "FKLLAGRWPFDHNDFGVFLCKLFP [EDNRA]"
  category: "criterion not met"
- residue_string: "SGGGGGGGGGGGGGKSGGIVISPF [CCDC6]"
  category: "criterion met"

# input for lookup
# check: protein stability index of DILWEHLEQMIKENQEKTEDQYEE [ETS2] is greater than or equal to 3
criterion met

----------
- protocol_details: protein stability index of a GFP-peptide fusion (GPS, HEK-293T) (PSI 1-6); higher = more stable
- run_parameters: treatment: MLN4924 1 uM, 8 h; c terminus: a fixed tail appended
Parameter threshold = 4. Response is 1 (yes) when protein stability index meets or exceeds it, else 0 (no).

Would you please look over these solved cases?
- residue_string: "SGEKYDPDANTWTALPPMNEARHN [GAN]"
  category: "1 (yes)"
- residue_string: "IKSVLWQTLQALNFCHIHNCIHRD [CDKL4]"
  category: "0 (no)"
- residue_string: "SRRREQSSSRNSHLVQHQHPNSRK [ZNF8]"
  category: "1 (yes)"
- residue_string: "NLIYRSTRHLKRLALMIQSSGNTV [TMEM192]"
  category: "0 (no)"
- residue_string: "CPLLLGSVMAIERCIGVTKPIFHS [PTGFR]"
  category: "0 (no)"

Given PKELSSFSFSMKGHEKTAKSKTRS [DLC1] , state whether its protein stability index is at least 4.
1 (yes)

Please tell me: is the sequence SIPLERIHFDSYITCVSGAIVDLI [FBXO33] at or over 4 in terms of protein stability index?
0 (no)

Check the entry CPKYKFISCPTCRRETVLFTDYGL [RNF208] : does protein stability index equal or exceed 4?
0 (no)

----------
- protocol_details: protein stability index of a GFP-peptide fusion (GPS, HEK-293T) (PSI 1-6); higher = more stable
- run_parameters: treatment: DMSO; c terminus: a fixed tail appended
Recorded measurements of protein stability index, one per entry
Write no unit; give the number alone.

As a guide, the following entries are already answered.
- residue_string: "DSCVLTGPDDSLWDKHACPAYVGP [TRIB3]"
  protein stability index: 3.65
- residue_string: "NPTRQDESIQRIAVHLCNALVCQV [ZER1]"
  protein stability index: 2.48
- residue_string: "HQRTHSEEETYKCLECGKSFCHGS [ZNF449]"
  protein stability index: 4.63
- residue_string: "VQSEIFLHESYCMDTSHQPLLPAP [LYSMD4]"
  protein stability index: 2.93
- residue_string: "YSEHFLQEAKLLHWNGRHKPWDFP [GLT8D2]"
  protein stability index: 2.17

Provide protein stability index value for the following sequence: SRRREQSSSRNSHLVQHQHPNSRK [ZNF8]
5.14

Please give the documented protein stability index of APFPPPPAADGARAPRSPGQVTPR [C6orf223]
5.14

Give reported protein stability index value for ELNGHTQKITAIITFPSLESCEEK [WDR41]
3.1

Give recorded protein stability index. AATQALPQDSGTAAWKGRVLLPET [C22orf31]
4.11

Indicate the recorded protein stability index value for this sequence: SVKIPVRNHGILMETHKELKPLLS [LYSMD4]
2.86

Assign protein stability index to the following record: SPVVAMTSRRSGVGLAVVNGQLMA [KLHL20]
2.88

Return value of protein stability index for input QAPKSKSGSRPRKPPPRKHTRSWA [LRRC59] , no commentary.
4.05

Using known records, supply protein stability index for GTLNREDLSRLVNCLTGEGEDTRL [CIB1]
4.25

----------
Each entry below lists one item and its recorded protein stability index value.
- protocol_details: protein stability index of a GFP-peptide fusion (GPS, HEK-293T) (PSI 1-6); higher = more stable
- run_parameters: treatment: MLN4924 1 uM, 8 h; c terminus: a fixed tail appended
Lab note: write the figure by itself, no unit.

- residue_string: "VVVESMEQDRIPEVHVPPSSAVSG [MIA2]"
  measurement: 4.48
- residue_string: "PASGEVEASQLRRLNIKKDDEFFH [TMEM40]"
  measurement: 4.78
- residue_string: "KLYGQRERVWALAQEKAADVQARL [FCHSD1]"
  measurement: 3.49

For the sequence VTQDGRKIYFTDSSSKWQRRDYLL [APMAP] , report protein stability index.
2.41

Give reported protein stability index value for AIHGYTVWAHNLIAIARLRGSDLK [FBXO33]
2.46

Input IVLNKINQILMEKYLKLQDTCRTQ [INTS3] , output reported protein stability index.
3.24

Using the record for DDIEEKTPISNEVEMESEEQIAER [KMT2E] , state its measured protein stability index.
5.66

Note down protein stability index recorded for IRVKIADLGNACWVHKHFTEDIQT [SRPK2]
2.26

For the sequence HTLPVNRETLKRKVSGNRCASPVT [ESR2] , give its measured protein stability index value.
4.24

Using the record for SIQWPGKRSSRRVQRHNSFSPNSP [NECAB1] , state its measured protein stability index.
3.62

Give protein stability index for the following sequence: HAAASNGQINVVKHLLNLGVEIDE [ANKRD44]
4.16

Return protein stability index for the following sequence: YIPSSYVDSHHEYPAMTFYSPAVM [ESR2]
2.6

In one line, give reported protein stability index of the entry RGLIPVKRGPSSRSGGPPPKKSAP [RBMY1A1] .
4.73
